Measured values drawn from patent US20200123233A1 for this set.

Target: Rabies virus glycoprotein G, strain CVS-11 (Challenge Virus Standard-11, ATCC VR 959) (Rabies virus, strain CVS-11)
Experiment: cell-based or functional assay
Listed binders paired with reported CVS neutralizing antibody titre (RFFIT): IU/nM
VALUE_TYPE: CVS neutralizing antibody titre (RFFIT): IU/nM (IU/nM)

[
  {
    "BINDER": "213-H7 15GS 213-H7 (VHH) EVQLVESGGGLVQAGGSLRLSCAASGRTLSSYRMGWFRQAPGKEREFISTISWNGRSTYYADSVKGRFIFSEDNAKNTVYLQMNSLKPEDTAVYYCAAALIGGYYSDVDAWSYWGPGTQVTVSSGGGGSGGGGSGGGGSEVQLVESGGGLVQAGGSLRLSCAASGRTLSSYRMGWFRQAPGKEREFISTISWNGRSTYYADSVKGRFIFSEDNAKNTVYLQMNSLKPEDTAVYYCAAALIGGYYSDVDAWSYWGPGTQVTVSS",
    "MEASURED_RESULT": 15.4
  },
  {
    "BINDER": "214-E8 25GS 212-C12 (VHH) EVQLVESGGGSVQAGGSLRLSCAASGGTFNPYVMAWFRQAPGNEREFVARIRWSGGDAYYDDSVKGRFAITRDAAKNTVHLQMNSLKPEDTAVYYCAAATYGYGSYTYGGSYDLWGQGTQVTVSSGGGGSGGGGSGGGGSGGGGSGGGGSEVQLVESGGGLVQPGGSLRLSCAASGFTFGSSDMSWVRQAPGKGPEWVSGINSGGGRTLYADSVKGRFTISRDNAKNTLYLQMNSLKSEDTAVYYCATDLYGSSWYTDYWSQGTQVTVSS",
    "MEASURED_RESULT": 1.6
  },
  {
    "BINDER": "214-E8 5GS 212-C12 (VHH) EVQLVESGGGSVQAGGSLRLSCAASGGTFNPYVMAWFRQAPGNEREFVARIRWSGGDAYYDDSVKGRFAITRDAAKNTVHLQMNSLKPEDTAVYYCAAATYGYGSYTYGGSYDLWGQGTQVTVSSGGGGSEVQLVESGGGLVQPGGSLRLSCAASGFTFGSSDMSWVRQAPGKGPEWVSGINSGGGRTLYADSVKGRFTISRDNAKNTLYLQMNSLKSEDTAVYYCATDLYGSSWYTDYWSQGTQVTVSS",
    "MEASURED_RESULT": 5.68
  },
  {
    "BINDER": "213-E6 25GS 213-E6 (VHH) EVQLVESGGGLVQAGASLRLSCAASGSTLSRYGVGWFRQAPGKERELVASVDWSGSRTYYADSVKGRFTISRDNAKNTGYLQMNSLKPDDTAVYYCAADSSVVPGIEKYDDWGLGTQVTVSSGGGGSGGGGSGGGGSGGGGSGGGGSEVQLVESGGGLVQAGASLRLSCAASGSTLSRYGVGWFRQAPGKERELVASVDWSGSRTYYADSVKGRFTISRDNAKNTGYLQMNSLKPDDTAVYYCAADSSVVPGIEKYDDWGLGTQVTVSS",
    "MEASURED_RESULT": 8.29
  },
  {
    "BINDER": "213-E6 5GS 213-E6 (VHH) EVQLVESGGGLVQAGASLRLSCAASGSTLSRYGVGWFRQAPGKERELVASVDWSGSRTYYADSVKGRFTISRDNAKNTGYLQMNSLKPDDTAVYYCAADSSVVPGIEKYDDWGLGTQVTVSSGGGGSEVQLVESGGGLVQAGASLRLSCAASGSTLSRYGVGWFRQAPGKERELVASVDWSGSRTYYADSVKGRFTISRDNAKNTGYLQMNSLKPDDTAVYYCAADSSVVPGIEKYDDWGLGTQVTVSS",
    "MEASURED_RESULT": 36
  }
]
